Source listed as PubChem BioAssay.

ASSAY_INFO: differential killing of epithelial or mesenchymal cells, primary screen, imaging, PC-3E GFP, TEM4-18 mCherry, co-culture (AID 1345086);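 further: cells exposed to compound for 72 h before imaging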
MEASUREMENT_SETUP: imaging cell counts, measured here: epithelial PC-3E GFP cell survival, at 1 µM
normalised cell number vs 1: at or above is 1.0, below is 0.0.

Please review the entries below; each comes with its answer.
MOLECULE	ANSWER_LABEL
C=CC[C@@H]1/C=C(\C)C[C@H](C)C[C@H](OC)[C@H]2O[C@@](O)(C(=O)C(=O)N3CCCC[C@H]3C(=O)O[C@H](/C(C)=C/[C@@H]3CC[C@@H](O)[C@H](OC)C3)[C@H](C)[C@@H](O)CC1=O)[C@H](C)C[C@@H]2OC	0.0
O=C(/C=C/c1ccc(O)c(O)c1)OC(Cc1ccc(O)c(O)c1)C(=O)O (configuration not stated)	1.0
CC(O)(CC(=O)O)CC(=O)O	0.0
CCC1(C)OC(=O)N(C)C1=O (configuration not stated)	1.0
C[C@@H]1CC2C3CCC4=CC(=O)C=C[C@]4(C)[C@@]3(F)[C@@H](O)C[C@]2(C)[C@@]1(O)C(=O)CO (some centres not stated)	1.0

We now examine a further molecule.
Inquiry: Does the molecule CCc1cc(Cl)c(OC)c(C(=O)NCC2CCCN2CC)c1O (configuration not stated) have recorded normalised cell number that is 1 or more?
Reply text: 1.0

----------
ASSAY_INFO: HepG2 cytotoxicity, primary screen, cytotoxicity control for P. falciparum antimalarial project, cell-based, ATP luminescence (AID 2303);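 further: 0% = DMSO wells and 100% = digitonin-killed cells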
MEASUREMENT_SETUP: HepG2 viability, 24-48 h, at 10 µM, stronger effect = higher value
With a cut-off of 10%, any inhibition strictly below it is called 1; any inhibition meeting it or above is called -1.

Please review the entries below; each comes with its answer.
COMPOUND	ANSWER_LABEL
Cn1c(Nc2cc(C(C)(C)C)on2)nc2cc(Nc3ccnc(Nc4cccc(CS(C)(=O)=O)c4)n3)ccc21	-1
CCc1c(CCNC/C=C/C=C/CNCCc2ccc(OC)c(OC)c2CC)ccc(OC)c1OC	-1
Nc1ccc(-c2cc(Cl)cc(Cl)c2)cc1-c1cc2ccccc2[nH]1	1
C=CCn1c(=N)n(CC(O)c2ccc(Cl)c(Cl)c2)c2ccccc21 (configuration not stated)	-1
COc1cccc(-c2cc3c(NCc4ccncc4)nccc3s2)c1	1
COc1cccc(C(=O)Nc2ccc(Nc3nc(C)cc(N(C)C)n3)cc2)c1OC	1
CCCCOc1cc(C)nc2ccc(NC(=O)COCC(=O)Nc3ccc4nc(C)cc(OCCCC)c4c3)cc12	1
CN(C)CCCn1cncc1-c1ccc2ncnc(Nc3ccc(OCc4ccccc4)cc3)c2c1	-1
CC(C)(CN)c1nc(-c2ccc(Cl)c(O)c2)c(-c2ccncc2)[nH]1	-1
Cc1cccc2[nH]c(-c3ccc(-c4ccc(NC(=O)Nc5ccc(Cl)cc5)cc4)cc3)nc12	-1

We now examine a further compound.
Inquiry: For this compound, is inhibition lower than 10%? "CN(C)CCCOC(=O)c1cc2cc(-c3ccccc3)ccc2n1S(=O)(=O)Cc1ccccc1"
Reply text: -1

----------
// reported inhibition for each item listed
ASSAY_SYSTEM: L-lactate dehydrogenase (Plasmodium falciparum (isolate CDC / Honduras))
ASSAY_INFO: PfLDH activity inhibition – cell lysate, 3D7 strain, counter-screen for P. falciparum growth inhibition project (AID 2304);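 further: 0% = vehicle and 100% = reference inhibitor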
MEASUREMENT_SETUP: P. falciparum 3D7 crude extract, LDH APAD/NBT absorbance; at 2 µM; stronger effect = higher value
Field: numeric (%). Do not append units.

Here is how some compounds turned out for inhibition.
COMPOUND	DATA_VALUE
Cc1cc(N[C@@H](CC(C)C)C(=O)NCc2cccc(F)c2)nc(Nc2ccccc2)n1	2
CC(C)(CNC(=O)[C@H]1CCCCN1)c1nc(-c2ccc(Cl)c(O)c2)c(-c2ccncc2)[nH]1	-3

Record "Cc1nc2ccc3ccc(CNc4ccc(C(=O)N[C@@H](CCC(=O)O)C(=O)O)c(F)c4)cc3c2c(=O)[nH]1" / L-lactate dehydrogenase (Plasmodium falciparum (isolate CDC / Honduras)), inhibition recorded as -1

Record "COc1cccc(C(=O)NCCOc2ccccc2)c1Oc1ccccc1" / L-lactate dehydrogenase (Plasmodium falciparum (isolate CDC / Honduras)), inhibition recorded as -4

Record "CN1CCC(N2CCN(C(=O)c3cccc(-c4cccc(-c5nc6ccccc6[nH]5)c4)c3)CC2)CC1" / L-lactate dehydrogenase (Plasmodium falciparum (isolate CDC / Honduras)), inhibition recorded as 3

Record COC(=O)Cn1c(C2CCN(CC3CCC(NC(=O)/C=C/c4ccc(Cl)c(Cl)c4)CC3)CC2)nc2ccccc21 (configuration not stated) / L-lactate dehydrogenase (Plasmodium falciparum (isolate CDC / Honduras)), inhibition recorded as 4

----------
ASSAY_INFO: differential killing of epithelial or mesenchymal cells, primary screen, imaging, PC-3E GFP, TEM4-18 mCherry, co-culture (AID 1345086);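 further: cells exposed to compound for 72 h before imaging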;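 on red/green cell ratio (normalised): normalised mesenchymal count divided by normalised epithelial count so high means epithelial killing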
MEASUREMENT_SETUP: imaging cell counts, at 1 µM, actives lie on both sides, counts scaled to control wells, 1 = unselective
// reported red/green cell ratio (normalised) for each item listed
Please state the value as a number alone, without comment.

COMPOUND	red/green cell ratio (normalised)
Cc1c(C)c2c(c(C)c1O)CCC(C)(CCCC(C)CCCC(C)CCCC(C)C)O2 (stereo unspecified)	1.01
CC1(C)S[C@@H]2[C@H](NC(=O)C(NC(=O)N3CCNC3=O)c3ccccc3)C(=O)N2C1C(=O)O (stereo partly specified)	0.99
CC1(C)C2CC[C@]3(C)C(C(=O)C=C4[C@@H]5C[C@@](C)(C(=O)O)CC[C@]5(C)CC[C@]43C)[C@@]2(C)CC[C@@H]1O (stereo partly specified)	0.98
N[C@@H](CO)c1ccccc1	0.91
Cc1ccc(S[C@H]2OC(CO)C(O)[C@@H]3OC(=O)N[C@H]23)cc1 (stereo partly specified)	0.98

Now take the following compound into account.
Record "CC(C)[C@@H]1CC[C@]2(CO2)[C@@H]2C(=O)OCC(C(=O)O)=C[C@H]21" , field red/green cell ratio (normalised): 1.02

----------
ASSAY_INFO: sensitizers of A549 cells to miR-34 induction, primary screen, imaging, A549 dox-inducible miR-34, nuclei and caspase counts (AID 1347080)
MEASUREMENT_SETUP: A549 miR-34 inducible, Hoechst nuclei count, 48 h; measured here: total cells without miR-34 induction
Square brackets hold non-standard residues; d marks the D form. Side chains are listed from the residue outwards. Peptide text beside a SMILES is read from it. * marks the point of attachment. X2 = CCC(C)C(N)C1=NC(C(=O)*)CS1; Orn = NCCC[CH](N)C(=O)O
OBSERVED_PROPERTY: cell count
Please state the value as a number alone, without comment.

Here is how some compounds turned out for cell count.
COMPOUND	cell count
CCOC(=O)Nc1nc2ccccc2[nH]1	10200
CCC(C)C(N)C1=NC(C(=O)NC(CC(C)C)C(=O)NC(CCC(=O)O)C(=O)NC(C(=O)NCCCCC2NC(=O)C(CC(N)=O)NC(=O)C(CC(=O)O)NC(=O)C(Cc3cnc[nH]3)NC(=O)C(Cc3ccccc3)NC(=O)C(C(C)CC)NC(=O)C(CCCN)NC2=O)C(C)CC)CS1 (stereo not drawn) (cyclo(DNK([Ile-Glu-Leu-X2])[Orn]IFH); configuration not given here)	12300
CC[C@H]1CN2CCc3cc(OC)c(OC)cc3C2C[C@@H]1CC1NCCc2cc(OC)c(OC)cc21 (stereo partly drawn)	2320
O=C(O)c1ccccc1-c1c2cc(I)c(=O)c(I)c-2oc2c(I)c(O)c(I)cc12	9880
CC(=O)Nc1ccc(S(=O)(=O)Nc2onc(C)c2C)cc1	13200
O=c1[nH]c(=O)n(C2C[C@@H](O)[C@@H](CO)O2)cc1F (stereo partly drawn)	3730

Record C[C@@H]1CC2C3CCC4=CC(=O)C=C[C@]4(C)[C@@]3(F)[C@@H](O)C[C@]2(C)[C@@]1(O)C(=O)CO (stereo partly drawn) , field cell count: 8850

Record CCCCC(=O)O[C@]1(C(=O)CO)CCC2C3CCC4=CC(=O)CC[C@]4(C)C3[C@@H](O)C[C@@]21C (stereo partly drawn) , field cell count: 9140

Record Cc1nnc(SCC2=C(C(=O)O)N3C(=O)C(NC(=O)Cn4cnnn4)C3SC2)s1 (stereo not drawn) , field cell count: 10800

Record CC(C)(CO)C(O)C(=O)NCCC(=O)NCCSSCCNC(=O)CCNC(=O)C(O)C(C)(C)CO (stereo not drawn) , field cell count: 8840

----------
System: F380Y/beta2Delta
ASSAY_INFO: modulators of BK channel variants, profiling panel, selectivity assay, cell-based, U2OS BacMam, thallium flux, beta subunits (AID 1259406);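 further: initial slope of Thallos dye fluorescence rise after thallium is added; log ratio against the mean of 0.3% DMSO vehicle wells on the same plate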
MEASUREMENT_SETUP: at 30 µM
log fold change Tl+ flux vs -0.001: at or above is 1.0, below is 0.0.

Please review the entries below; each comes with its answer.
COMPOUND	ANSWER_LABEL
COC(=O)c1ccc(C=Cc2cccc(Cl)c2)s1	0.0
Cn1c(Sc2cnc(=S)[nH]c2-c2ccc(Cl)cc2)nnc1C(F)(F)F	1.0
NC(=O)CN1C(=O)C(=Cc2ccco2)N=C1c1ccccc1	0.0
C[C@H]1O[C@@H](O[C@H]2[C@@H](O)C[C@H](O[C@H]3[C@@H](O)C[C@H](O[C@H]4CC[C@@]5(C)[C@H](CC[C@@H]6[C@@H]5C[C@@H](O)[C@]5(C)C(C7=CC(=O)OC7)CC[C@]65O)C4)O[C@@H]3C)O[C@@H]2C)C[C@H](O)[C@@H]1O (some centres undefined)	1.0
Cc1cc(N=CN(C)C)c2ccccc2n1	1.0
Cc1cc(C)c(C(=O)O)c(CC(C)(C)C(=O)O)c1	0.0
Cc1nc(-c2ccc(S(=O)(=O)N3CCCN(c4ccc(C(F)(F)F)cn4)CC3)s2)cs1	0.0
OC(Cc1ccccc1)(c1ccccc1)c1ccccc1N=Cc1ccc2c(c1)OCO2 (centres undefined)	0.0

Inquiry: Does the compound "CN1CCN(S(=O)(=O)c2ccc(CNC(=O)c3ccccc3)s2)CC1" have recorded log fold change Tl+ flux that is -0.001 or more?
Reply text: 0.0

Inquiry: Does the compound CCC(C)n1ncn(-c2ccc(N3CCN(c4ccc(OCC5COC(Cn6cncn6)(c6ccc(Cl)cc6Cl)O5)cc4)CC3)cc2)c1=O (centres undefined) have recorded log fold change Tl+ flux that is -0.001 or more?
Reply text: 0.0

Inquiry: Does the compound "Cc1onc(-c2c(Cl)cccc2Cl)c1C(=O)NOC(=O)c1cccs1" have recorded log fold change Tl+ flux that is -0.001 or more?
Reply text: 1.0

Inquiry: Does the compound "N=C(N)Cc1c(Cl)cccc1Cl" have recorded log fold change Tl+ flux that is -0.001 or more?
Reply text: 1.0

Inquiry: Does the compound COc1cccc(C=NNC(=O)C2CCCN(C(=S)NNC3CC4C=CC3C4)CC2)c1O (centres undefined) have recorded log fold change Tl+ flux that is -0.001 or more?
Reply text: 0.0

Inquiry: Does the compound "Nc1ccc(Cl)cc1-c1nc2ccccc2[nH]1" have recorded log fold change Tl+ flux that is -0.001 or more?
Reply text: 0.0

Inquiry: Does the compound "COc1ccc(C(C)=NO)cc1CN1CCCC1" have recorded log fold change Tl+ flux that is -0.001 or more?
Reply text: 1.0
